Assay: NCI Yeast Anticancer Drug Screen. Data for the sgs1 mgt1 strain (AID 161);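 also: 0% = growth of cultures given vehicle only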
Settings: S. cerevisiae sgs1 mgt1 strain, at 50.0 µM (retest, dose inferred, filed as 5.0), active compounds read high
This is part of a sample that, as a whole, favours compounds with a hit. Of some 79,000 tested, about 15% had one in any assay.

MOLECULE	UNITS LABEL	growth inhibition
O=C1OC(CC(=O)c2ccccc2Cl)C(Cl)=C1Cl (stereo unspecified)	%	52
CCC[CH2][Sn]([CH2]CCC)([O]C(=O)c1cc(F)ccc1F)[O][Sn]([CH2]CCC)([CH2]CCC)[O]C(=O)c1cc(F)ccc1F	%	96
CC(C)CCCC(C)C1CCC2C3CC=C4CC(OC(=O)Nc5ccc(S(=O)(=O)c6ccc(F)cc6)cc5)CCC4(C)C3CCC12C (stereo unspecified)	%	0
O=S(=O)(c1cc(Br)ccc1O)c1cc(Br)ccc1O	%	99
OC(Cc1ccccc1)(Cc1ccccc1)c1ccccc1	%	99
Oc1ccccc1C1C=C(c2ccccc2)NC(N2CCCCC2)=C1c1nc2ccccc2[nH]1 (stereo unspecified)	%	-10
CC(=O)SCC(=O)Nc1ccc(Cl)cc1	%	85
CCCCCCCC[N+](C)(CCCCCCCC)CCCCCCCC	%	97
CC1SC2(C(=O)Nc3ccc([N+](=O)[O-])cc32)N(c2ccc(Cl)cc2)C1=O (stereo unspecified)	%	98
C[n+]1cccc2c1-c1ccccc1C2=O	%	8
CCN(CC)CCCNc1cccc2ccc(OC)nc12	%	60
O=c1ccc2nc3ccccc3sc-2c1	%	98
C/C(=N\NC(=S)N1CCN(C2CCCCCC2)CC1)c1ccccn1	%	99
O=C(Nc1ccc(O)cc1O)c1ccccc1	%	82
COC(=O)/C(C#N)=C/c1cc(OC)c(O)cc1Br	%	68
O=C(Nc1ccc(Cl)cc1)Nc1nnc2nc(C(C(=O)/C=C/c3ccccc3)c3nc4nnc(NC(=O)Nc5ccc(Cl)cc5)n4[nH]c3=O)c(=O)[nH]n12	%	2

Data origin: PubChem BioAssay (NCI)
